- experimentalSystem: UniProt P11712
- Sequence (P11712 whole entry): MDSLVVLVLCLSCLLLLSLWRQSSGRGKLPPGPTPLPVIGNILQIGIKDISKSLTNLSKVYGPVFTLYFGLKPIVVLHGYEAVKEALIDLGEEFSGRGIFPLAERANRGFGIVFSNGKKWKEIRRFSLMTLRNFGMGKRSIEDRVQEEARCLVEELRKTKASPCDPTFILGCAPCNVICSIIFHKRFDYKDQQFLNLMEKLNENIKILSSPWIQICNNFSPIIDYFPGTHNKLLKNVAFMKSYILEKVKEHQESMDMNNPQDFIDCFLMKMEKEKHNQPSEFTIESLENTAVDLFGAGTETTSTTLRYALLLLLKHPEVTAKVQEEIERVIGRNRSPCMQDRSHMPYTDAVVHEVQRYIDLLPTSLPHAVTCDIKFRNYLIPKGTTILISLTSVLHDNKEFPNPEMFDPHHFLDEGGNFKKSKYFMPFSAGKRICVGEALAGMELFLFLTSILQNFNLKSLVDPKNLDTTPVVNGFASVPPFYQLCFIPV
- assayProtocol: in vitro
- conditionContext: microsomes, pH 7.4
pIC50: −log10 of the molar value.
resultType: pIC50

{"smilesText": "CCOC(=O)NC(=O)c1ccsc1NC(=O)c1ccn2cnnc2c1", "resultType": "pIC50", "quantitativeResult": 5.74}

----------
- experimentalSystem: UniProt:A0R607
- Sequence (A0R607 whole entry): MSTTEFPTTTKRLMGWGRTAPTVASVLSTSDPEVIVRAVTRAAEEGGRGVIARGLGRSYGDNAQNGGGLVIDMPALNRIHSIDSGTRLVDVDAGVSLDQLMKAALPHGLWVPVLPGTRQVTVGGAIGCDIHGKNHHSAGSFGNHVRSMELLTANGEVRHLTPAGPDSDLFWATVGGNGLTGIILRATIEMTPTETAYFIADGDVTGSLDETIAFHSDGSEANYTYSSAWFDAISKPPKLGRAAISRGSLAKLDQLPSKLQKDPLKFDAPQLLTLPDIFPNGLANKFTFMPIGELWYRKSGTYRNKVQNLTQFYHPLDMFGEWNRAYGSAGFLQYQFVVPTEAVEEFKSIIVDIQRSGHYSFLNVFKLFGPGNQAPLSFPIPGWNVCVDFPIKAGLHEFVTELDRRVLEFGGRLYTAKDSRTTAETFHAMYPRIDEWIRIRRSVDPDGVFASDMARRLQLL
- assayProtocol: biochemical
- conditionContext: M. smegmatis DprE1; Table 1; read-out: IC50 DprE1 WT
resultType: IC50 (nM)

{"smilesText": "Cc1ccnc(NC(=O)c2ccsc2NC(=O)c2nc3cnccc3s2)n1", "quantitativeResult": 96}

----------
- experimentalSystem: hERG potassium channel (Homo sapiens, UniProt Q12809)
- Sequence (Q12809 whole entry): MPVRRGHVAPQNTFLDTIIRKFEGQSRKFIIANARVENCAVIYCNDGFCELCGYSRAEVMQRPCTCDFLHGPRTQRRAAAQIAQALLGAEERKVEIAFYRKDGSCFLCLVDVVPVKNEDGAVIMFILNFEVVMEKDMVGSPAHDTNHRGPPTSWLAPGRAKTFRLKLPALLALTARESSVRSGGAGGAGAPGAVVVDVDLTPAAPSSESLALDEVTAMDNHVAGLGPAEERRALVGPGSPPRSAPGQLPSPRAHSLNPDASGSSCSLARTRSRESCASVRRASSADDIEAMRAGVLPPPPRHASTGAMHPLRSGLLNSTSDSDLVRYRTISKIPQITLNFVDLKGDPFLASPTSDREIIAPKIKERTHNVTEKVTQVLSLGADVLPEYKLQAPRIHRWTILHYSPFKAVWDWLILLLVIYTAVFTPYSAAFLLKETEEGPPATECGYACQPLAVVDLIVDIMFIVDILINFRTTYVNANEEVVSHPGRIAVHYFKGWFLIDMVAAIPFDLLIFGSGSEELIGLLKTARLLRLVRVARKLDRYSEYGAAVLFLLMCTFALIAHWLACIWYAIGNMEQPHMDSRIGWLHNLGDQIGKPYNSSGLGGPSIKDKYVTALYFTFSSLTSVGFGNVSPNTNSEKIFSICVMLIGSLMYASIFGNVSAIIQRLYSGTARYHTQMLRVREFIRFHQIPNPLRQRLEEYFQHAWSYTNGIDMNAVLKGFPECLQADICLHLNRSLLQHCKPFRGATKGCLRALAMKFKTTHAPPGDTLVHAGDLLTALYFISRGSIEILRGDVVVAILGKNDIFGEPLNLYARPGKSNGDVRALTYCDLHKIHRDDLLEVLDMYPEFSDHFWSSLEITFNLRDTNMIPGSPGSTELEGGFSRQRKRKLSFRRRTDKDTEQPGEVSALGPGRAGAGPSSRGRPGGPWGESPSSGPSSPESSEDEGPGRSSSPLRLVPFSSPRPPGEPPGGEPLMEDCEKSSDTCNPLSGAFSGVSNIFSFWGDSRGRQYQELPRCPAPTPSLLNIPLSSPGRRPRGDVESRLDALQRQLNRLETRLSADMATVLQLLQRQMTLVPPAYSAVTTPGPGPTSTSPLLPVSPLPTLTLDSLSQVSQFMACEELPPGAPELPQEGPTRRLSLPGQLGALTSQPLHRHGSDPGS
resultType: IC50

{"smilesText": "CCOC(=O)NC(=O)c1ccsc1NC(=O)c1nc2cnccc2s1", "experimentalSystem": "hERG potassium channel (Homo sapiens, UniProt Q12809)", "resultType": "IC50", "result": "> 30 µM"}
